Target: Carbonic anhydrase 12 (Homo sapiens, UniProt O43570)
Sequence (O43570 whole entry, the tested form may be a part): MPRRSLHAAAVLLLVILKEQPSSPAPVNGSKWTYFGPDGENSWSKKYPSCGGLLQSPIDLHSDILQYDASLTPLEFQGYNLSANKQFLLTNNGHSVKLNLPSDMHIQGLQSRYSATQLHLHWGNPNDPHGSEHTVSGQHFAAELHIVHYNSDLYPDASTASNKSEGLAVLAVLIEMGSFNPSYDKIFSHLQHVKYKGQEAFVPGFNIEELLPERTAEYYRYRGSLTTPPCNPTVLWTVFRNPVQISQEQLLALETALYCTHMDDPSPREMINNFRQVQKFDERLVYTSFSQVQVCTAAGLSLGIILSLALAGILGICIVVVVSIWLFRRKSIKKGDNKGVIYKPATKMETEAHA
Assay: Inhibition of recombinant human CA XII (30 to 291 residues) expressed in escherichia coli BL21 assessed as inhibition constant preincubated for 15 mins by phenol red dye based stopped-flow CO2 hydration assay
observed_property: Ki (nM)

chem_smiles	Ki (nM)
Cc1cc(-c2ccc(S(N)(=O)=O)s2)cnc1-c1cccc2ncccc12	86.3
Cc1cc(-c2ccc(S(N)(=O)=O)s2)ccc1-c1cccc2ncccc12	79.4
Cc1cc(-c2ccc(S(N)(=O)=O)s2)ccc1-c1ccnc2ccccc12	41.8
Cc1cc(-c2ccc(S(N)(=O)=O)s2)cnc1-c1ccnc2ccccc12	157
NS(=O)(=O)c1cccc(-c2ccc(-c3cccc4ccccc34)cc2)c1	558
NS(=O)(=O)c1ccc(-c2ccc(-c3cccc4ncccc34)cc2)s1	71.8
NS(=O)(=O)c1ccc(-c2ccc(-c3cccc4ccccc34)cc2)s1	559
NS(=O)(=O)c1ccc(-c2ccc(-c3cccc4ccccc34)cc2)cc1	501

[I] Cc1cc(-c2cccc(S(N)(=O)=O)c2)ccc1-c1cccc2ccccc12
[II] NS(=O)(=O)c1ccc(-c2ccc(-c3ccnc4ccccc34)cn2)s1
Enquiry: Lab note: record which item had the higher Ki, I or II . Let me know the label of the one you choose.
Return: I

###

Biological target: Carbonic anhydrase 2 (Homo sapiens)
Assay: Inhibition of recombinant human […] assessed as inhibition constant preincubated for 15 mins by phenol red dye based stopped-flow CO2 hydration assay
observed_property: Ki (nM)

Here's what some known entries look like.
chem_smiles	Ki, nM
Cc1cc(-c2ccc(S(N)(=O)=O)s2)cnc1-c1ccnc2ccccc12	3.7
Cc1cc(-c2ccc(S(N)(=O)=O)s2)cnc1-c1cccc2ncccc12	3.2
Cc1cc(-c2ccc(S(N)(=O)=O)s2)ccc1-c1cccc2ncccc12	5.7
NS(=O)(=O)c1ccc(-c2ccc(-c3ccnc4ccccc34)cn2)s1	2.1
Cc1cc(-c2ccc(S(N)(=O)=O)s2)ccc1-c1ccnc2ccccc12	5.5
Cc1cc(-c2ccc(S(N)(=O)=O)s2)cnc1-c1cccc2ccccc12	7.3
NS(=O)(=O)c1ccc(-c2ccc(-c3cccc4ncccc34)cc2)s1	11.3
NS(=O)(=O)c1ccc(-c2ccc(-c3cccc4ccccc34)cc2)s1	28.7

[a] NS(=O)(=O)c1ccc(-c2ccc(-c3cccc4ncccc34)cc2)cc1
[b] NS(=O)(=O)c1cccc(-c2ccc(-c3cccc4ccccc34)cc2)c1
Enquiry: Lab note: record which item had the higher Ki, a or b . Let me know the label of the one you choose.
Return: b

[a] NS(=O)(=O)c1ccc(-c2ccc(-c3cccc4ccccc34)cc2)cc1
[b] Cc1cc(-c2ccc(S(N)(=O)=O)cc2)cnc1-c1ccnc2ccccc12
[c] Cc1cc(-c2cccc(S(N)(=O)=O)c2)cnc1-c1ccnc2ccccc12
[d] Cc1cc(-c2ccc(S(N)(=O)=O)s2)ccc1-c1cccc2ccccc12
Enquiry: # rank_down: sort by Ki, max first # format: label list in the order the request specifies
Return: c, a, d, b
(c: 88.6 nM, a: 58.2 nM, d: 34.8 nM, b: 4.9 nM)

[1] Cc1cc(-c2cccc(S(N)(=O)=O)c2)ccc1-c1cccc2ccccc12
[2] Cc1cc(-c2ccc(S(N)(=O)=O)cc2)ccc1-c1cccc2ccccc12
Enquiry: Lab note: record which item had the higher Ki, 1 or 2 . Let me know the label of the one you choose.
Return: 1
(1: 101 nM, 2: 30.5 nM)
